Where do the numbers come from? From patent US20220064276A1.

- SYSTEM TESTED: T1, mouse LTBP1-proTGFβ1 complex (mouse, UniProt Q8CG19 339-1712; P04202 30-390)
- T1 construct: Exemplary entries; In the cell assays expressed from mouse LTBP1S and mouse proTGFb1 plasmids in LN229 cells; also called Mo LTBP1-proTGFβ1; MuLTBP1-ProTGFb1
- T1 sequence (Q8CG19 339-1712 limits assumed, chain 1 of 2): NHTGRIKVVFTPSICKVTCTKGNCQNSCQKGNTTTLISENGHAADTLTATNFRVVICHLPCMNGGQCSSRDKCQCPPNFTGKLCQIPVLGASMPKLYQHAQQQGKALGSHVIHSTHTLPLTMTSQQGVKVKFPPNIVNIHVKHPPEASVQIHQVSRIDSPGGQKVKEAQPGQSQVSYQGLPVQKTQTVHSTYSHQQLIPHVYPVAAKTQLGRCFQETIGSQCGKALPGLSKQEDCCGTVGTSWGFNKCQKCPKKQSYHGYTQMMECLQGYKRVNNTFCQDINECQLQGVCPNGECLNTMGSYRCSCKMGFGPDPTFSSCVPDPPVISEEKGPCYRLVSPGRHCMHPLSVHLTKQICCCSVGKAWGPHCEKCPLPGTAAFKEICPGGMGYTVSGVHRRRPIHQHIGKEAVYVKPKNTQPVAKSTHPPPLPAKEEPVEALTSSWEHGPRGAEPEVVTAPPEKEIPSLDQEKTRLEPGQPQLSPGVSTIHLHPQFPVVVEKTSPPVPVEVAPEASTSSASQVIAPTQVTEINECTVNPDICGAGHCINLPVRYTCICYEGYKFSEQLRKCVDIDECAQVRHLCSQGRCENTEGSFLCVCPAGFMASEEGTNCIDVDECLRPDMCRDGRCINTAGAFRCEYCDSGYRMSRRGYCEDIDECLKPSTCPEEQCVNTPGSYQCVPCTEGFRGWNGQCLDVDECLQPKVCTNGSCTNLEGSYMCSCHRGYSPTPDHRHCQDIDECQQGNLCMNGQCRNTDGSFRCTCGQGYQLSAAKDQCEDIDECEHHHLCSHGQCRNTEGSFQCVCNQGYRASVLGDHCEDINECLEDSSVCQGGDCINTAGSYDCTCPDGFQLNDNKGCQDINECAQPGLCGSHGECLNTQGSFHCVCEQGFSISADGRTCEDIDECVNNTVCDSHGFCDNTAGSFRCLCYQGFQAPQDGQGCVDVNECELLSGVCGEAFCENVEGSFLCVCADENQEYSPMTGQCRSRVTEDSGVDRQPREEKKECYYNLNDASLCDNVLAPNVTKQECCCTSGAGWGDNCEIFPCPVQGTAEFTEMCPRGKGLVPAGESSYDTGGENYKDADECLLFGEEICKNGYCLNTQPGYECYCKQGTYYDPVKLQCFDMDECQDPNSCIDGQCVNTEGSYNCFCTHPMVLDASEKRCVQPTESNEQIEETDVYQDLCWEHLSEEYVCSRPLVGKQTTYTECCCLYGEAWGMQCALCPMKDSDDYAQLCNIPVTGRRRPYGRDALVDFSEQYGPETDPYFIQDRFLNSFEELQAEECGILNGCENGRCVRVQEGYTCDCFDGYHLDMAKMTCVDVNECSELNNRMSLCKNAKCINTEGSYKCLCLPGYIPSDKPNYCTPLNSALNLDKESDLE
- T1 sequence (P04202 30-390 limits assumed, chain 2 of 2): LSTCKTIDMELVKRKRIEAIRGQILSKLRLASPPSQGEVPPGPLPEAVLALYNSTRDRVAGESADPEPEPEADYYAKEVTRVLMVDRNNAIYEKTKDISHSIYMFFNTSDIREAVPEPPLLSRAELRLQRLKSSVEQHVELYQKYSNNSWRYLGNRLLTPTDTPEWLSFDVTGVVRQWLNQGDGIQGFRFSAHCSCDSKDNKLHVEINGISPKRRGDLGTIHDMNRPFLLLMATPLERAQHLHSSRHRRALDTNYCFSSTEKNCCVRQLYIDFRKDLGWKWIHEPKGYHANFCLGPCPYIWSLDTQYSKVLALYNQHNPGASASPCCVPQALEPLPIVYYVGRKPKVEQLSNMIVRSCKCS
- EXPERIMENT DESCRIPTION: Octet BLI, IgG captured
// Kd lookup, one value per entry
Write the answer as a number in nM, unit excluded.

Here's what some known entries look like.
# BINDER, READOUT UNIT, Kd
records = [
    ("SR-AB31 (antibody, IgG1, V domains shown, Cycle 3, lineage SR-AB22) VH: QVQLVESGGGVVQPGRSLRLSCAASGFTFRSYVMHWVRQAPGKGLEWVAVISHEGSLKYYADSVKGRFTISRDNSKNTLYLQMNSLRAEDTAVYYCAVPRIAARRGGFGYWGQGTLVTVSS VL: NFMLTQPHSVSESPGKTVTISCTRSSGNIDNNYVQWYQQRPGSSPTTVIYEDNQRPSGVPDRFSGSIDSSSNSASLTISGLKTEDEADYYCQSYDFNNQGVVFGGGTKLTVL", "nM", 0.682),
    ("SR-AB37 (antibody, IgG1, V domains shown, Cycle 3, lineage SR-AB22) VH: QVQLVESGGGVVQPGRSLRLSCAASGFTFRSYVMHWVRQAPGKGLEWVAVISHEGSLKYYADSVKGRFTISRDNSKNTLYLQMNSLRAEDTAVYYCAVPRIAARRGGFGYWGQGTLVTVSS VL: NFMLTQPHSVSESPGKTVTISCTRSSGLIDDNYVQWYQQRPGSSPTTVIYEDNQRPSGVPDRFSGSIDSSSNSASLTISGLKTEDEADYYCQSYDSDLQRVVFGGGTKLTVL", "nM", 0.384),
]

Okay, now this binder:
Query string: Which value of Kd has been reported for SR-AB39 (antibody, IgG1, V domains shown, Cycle 3, lineage SR-AB22) VH: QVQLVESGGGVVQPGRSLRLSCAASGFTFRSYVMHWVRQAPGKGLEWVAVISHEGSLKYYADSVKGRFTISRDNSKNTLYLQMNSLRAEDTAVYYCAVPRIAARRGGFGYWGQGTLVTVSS VL: NFMLTQPHSVSESPGKTVTISCTRSSGLIDDNYVQWYQQRPGSSPTTVIYEDAQRPSGVPDRFSGSIDSSSNSASLTISGLKTEDEADYYCQSYDHDEQGVVFGGGTKLTVL in the records?
Result string: 0.232
